The measurements presented in this section are drawn from patent EP3375430A1.

- protocol-summary: Amount of fragrance ingredients retained on paper blotter after evaporation (ethanol extraction, GC-MS)
- Format: physicochemical
- test-parameters: Table 9; fragrance COM1 in C6; T0 + 15 min
# reported amount of fragrance ingredient retained on blotter (percentage of the initial amount); entries follow
measurement-kind: amount of fragrance ingredient retained on blotter (percentage of the initial amount) (%)

# molecule, number
records = [
    ("C=CC(C)(O)CCC=C(C)CC (mixture of isomers)", 70.8),
    ("CC(C)(C)c1ccc(CCC=O)cc1", 75.6),
    ("CC(C=O)Cc1ccc(C(C)C)cc1 (centres unmarked)", 75.4),
    ("CC/C=C(\\C)C(O)CCCCC (centres unmarked) [Undecavertol™, (E)-4-methyldec-3-en-5-ol]", 73.2),
    ("C=C(C)[C@H]1CC=C(C)CC1", 6.6),
    ("CC1(C)CCC[C@]2(C)[C@H]3CCO[C@]3(C)CC[C@@H]12", 75.6),
    ("CC=CC(=O)C1=C(C)CCCC1(C)C", 74.8),
    ("CC(=O)OC1CCCCC1C(C)(C)C (centres unmarked) [Verdox™, (2-tert-butylcyclohexyl) acetate]", 66.4),
]
